# pKd listing for each entry below
targetOrTestSystem: T1, rhNR10 (recombinant human NR10) (human, UniProt Q8NI17 20-519, limits assumed)
T1 construct: also called IL-31 receptor; IL31RA
T1 sequence: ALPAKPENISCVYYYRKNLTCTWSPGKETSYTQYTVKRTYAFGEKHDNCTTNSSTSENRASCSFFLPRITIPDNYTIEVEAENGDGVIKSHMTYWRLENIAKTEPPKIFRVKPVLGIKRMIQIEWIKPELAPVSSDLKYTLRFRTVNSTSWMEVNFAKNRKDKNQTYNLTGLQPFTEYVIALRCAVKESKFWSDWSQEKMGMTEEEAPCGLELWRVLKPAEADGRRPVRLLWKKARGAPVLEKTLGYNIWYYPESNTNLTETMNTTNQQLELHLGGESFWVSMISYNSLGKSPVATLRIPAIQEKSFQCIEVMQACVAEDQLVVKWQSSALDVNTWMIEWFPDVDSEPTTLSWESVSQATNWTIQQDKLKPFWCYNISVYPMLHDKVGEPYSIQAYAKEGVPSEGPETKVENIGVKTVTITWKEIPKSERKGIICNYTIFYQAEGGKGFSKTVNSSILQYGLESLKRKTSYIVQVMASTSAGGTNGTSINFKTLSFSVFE
assayNotes: SPR, Biacore T100; antibody captured on Protein A, rhNR10 as analyte
Remember the convention: pKd equals -log10 of concentration in molar.

Record excerpt, results attached:
binder	quantitativeResult
H92L17 (H92-M58 / L17) (antibody, V domains shown) VH: QVQLVQSGAEVKKPGASVKVSCKASGYTFTGYAMNWVRQAPGQGLEWMGLINPYNGGTDYNPQFQGRVTITADKSTSTAYMELSSLRSEDTAVYYCARDGYDDGPYTLETWGQGTLVTVSS VL: DIQMTQSPSSLSASVGDRVTITCQASEDIYSFVAWYQQKPGKAPKLLIYNAQTEAQGVPSRFSGSGSGTDFTLTISSLQPEDFATYYCQHHYDSPLTFGGGTKVEIKR	8.39
H30L17 (H30-M58 / L17) (antibody, V domains shown) VH: QVQLVQSGAEVKKPGASVKVSCKASGYTFTGYIMNWVRQAPGQGLEWMGLINPYNGGTDYNPQFQDRVTITADESTSTAYMELSSLRSEDTAVYYCARDGYDDGPYTLETWGQGTLVTVSS VL: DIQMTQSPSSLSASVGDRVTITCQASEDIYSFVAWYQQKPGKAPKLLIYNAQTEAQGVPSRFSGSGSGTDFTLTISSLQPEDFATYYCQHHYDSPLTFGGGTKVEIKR	9.08
H97L50 (H97-M58 / L50) (antibody, V domains shown) VH: QVQLVQSGAEVKKPGASVKVSCKASGYTFTGYIMNWVRQAPGQGLEWMGLINPYNGGTSYNQQFQDRVTITADESTSTAYMELSSLRSEDTAVYYCARDGYDDGPYTLETWGQGTLVTVSS VL: DIQMTQSPSSLSASVGDRVTITCQASEDIYSFLAWYQQKPGKAPKLLIYNAQTEAQGVPSRFSGSGSGTDFTLTISSLQPEDFATYYCQHHYDSPLTFGGGTKVEIKR	8.46
H57L17 (H57-M58 / L17) (antibody, V domains shown) VH: QVQLVQSGAEVKKPGASVKVSCKASGYTFTGYIMNWVRQAPGQGLEWMGLINPYNGGTDYNPQFQGRVTITADESTSTAYMELSSLRSEDTAVYYCARDGYDDGPYTLETWGQGTLVTVSS VL: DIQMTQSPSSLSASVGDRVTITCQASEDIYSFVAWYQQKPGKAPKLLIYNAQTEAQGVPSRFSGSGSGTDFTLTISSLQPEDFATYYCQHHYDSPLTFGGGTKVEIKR	9.11
H28L17 (H28-M58 / L17) (antibody, V domains shown) VH: QVQLVQSGAEVKKPGASVKVSCKASGYTFTGYVLNWVRQAPGQGLEWMGLINPYNGGTDYNPQFQDRVTITADESTSTAYMELSSLRSEDTAVYYCARDGYDDGPYTLETWGQGTLVTVSS VL: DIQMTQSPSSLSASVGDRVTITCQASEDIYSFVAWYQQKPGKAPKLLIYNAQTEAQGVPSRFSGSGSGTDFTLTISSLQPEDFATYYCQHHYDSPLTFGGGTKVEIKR	9.28

Fill in reported pKd for this entry: H42L17 (H42-M58 / L17) (antibody, V domains shown) VH: QVQLVQSGAEVKKPGASVKVSCKASGYTFTGYVLNWVRQAPGQGLEWMGLINPYNGGTDYNPQFQDRVTITADKSTSTAYMELSSLRSEDTAVYYCARDGYDDGPYTLETWGQGTLVTVSS VL: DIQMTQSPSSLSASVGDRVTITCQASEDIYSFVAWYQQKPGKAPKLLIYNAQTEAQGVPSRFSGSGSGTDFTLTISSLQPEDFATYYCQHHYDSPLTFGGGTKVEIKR
9.19

# return recorded pKd for input H44L17 (H44-M58 / L17) (antibody, V domains shown, also called humanized anti-human NR10 antibody) VH: QVQLVQSGAEVKKPGASVKVSCKASGYTFTGYIMNWVRQAPGQGLEWMGLINPYNGGTDYNPQFQDRVTITADKSTSTAYMELSSLRSEDTAVYYCARDGYDDGPYTLETWGQGTLVTVSS VL: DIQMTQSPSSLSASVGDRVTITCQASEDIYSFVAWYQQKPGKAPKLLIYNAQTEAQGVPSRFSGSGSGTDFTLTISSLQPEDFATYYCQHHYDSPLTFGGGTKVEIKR
8.92

Supply recorded pKd for H46L17 (H46-M58 / L17) (antibody, V domains shown) VH: QVQLVQSGAEVKKPGASVKVSCKASGYTFTGYAMNWVRQAPGQGLEWMGLINPYNGGTDYNPQFQDRVTITADKSTSTAYMELSSLRSEDTAVYYCARDGYDDGPYTLETWGQGTLVTVSS VL: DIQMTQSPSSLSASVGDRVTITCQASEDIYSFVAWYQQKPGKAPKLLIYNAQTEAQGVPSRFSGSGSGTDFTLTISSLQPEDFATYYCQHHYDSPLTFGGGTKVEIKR here.
8.34

Check the records and state pKd for H78L17 (H78-M58 / L17) (antibody, V domains shown) VH: QVQLVQSGAEVKKPGASVKVSCKASGYTFTGYIMNWVRQAPGQGLEWMGLINPYNGGTDYNPQFQGRVTITADKSTSTAYMELSSLRSEDTAVYYCARDGYDDGPYTLETWGQGTLVTVSS VL: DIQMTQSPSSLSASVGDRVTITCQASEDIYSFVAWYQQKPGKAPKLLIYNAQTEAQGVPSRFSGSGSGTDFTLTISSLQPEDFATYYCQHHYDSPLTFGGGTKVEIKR
8.96

Identify the reported pKd for the following entry. H34L17 (H34-M58 / L17) (antibody, V domains shown) VH: QVQLVQSGAEVKKPGASVKVSCKASGYTFTGYAMNWVRQAPGQGLEWMGLINPYNGGTDYNPQFQDRVTITADESTSTAYMELSSLRSEDTAVYYCARDGYDDGPYTLETWGQGTLVTVSS VL: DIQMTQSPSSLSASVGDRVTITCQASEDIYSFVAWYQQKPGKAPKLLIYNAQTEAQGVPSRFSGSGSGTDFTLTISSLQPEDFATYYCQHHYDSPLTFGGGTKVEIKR
8.44

Recall and state the measured pKd for H98L50 (H98-M58 / L50) (antibody, V domains shown) VH: QVQLVQSGAEVKKPGASVKVSCKASGYTFTGYIMNWVRQAPGQGLEWMGLINPYNGGTSYNQQFQDRVTITADKSTSTAYMELSSLRSEDTAVYYCARDGYDDGPYTLETWGQGTLVTVSS VL: DIQMTQSPSSLSASVGDRVTITCQASEDIYSFLAWYQQKPGKAPKLLIYNAQTEAQGVPSRFSGSGSGTDFTLTISSLQPEDFATYYCQHHYDSPLTFGGGTKVEIKR .
8.34

Ref: patent US20110129459A1
